Target: VCB: PROTAC: SMARCA2^BD ternary complex (Homo sapiens, UniProt P40337+P51531)
Sequence (P40337 54-213): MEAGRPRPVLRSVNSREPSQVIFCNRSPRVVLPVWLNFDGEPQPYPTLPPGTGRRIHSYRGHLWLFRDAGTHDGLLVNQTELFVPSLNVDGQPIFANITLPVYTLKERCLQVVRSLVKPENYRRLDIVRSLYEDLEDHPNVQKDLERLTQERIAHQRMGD
Sequence (Q15369 17-112 partner limits assumed): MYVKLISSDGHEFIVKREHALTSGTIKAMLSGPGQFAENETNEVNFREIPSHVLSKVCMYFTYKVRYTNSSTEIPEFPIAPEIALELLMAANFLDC
Sequence (Q15370 1-104 partner limits assumed): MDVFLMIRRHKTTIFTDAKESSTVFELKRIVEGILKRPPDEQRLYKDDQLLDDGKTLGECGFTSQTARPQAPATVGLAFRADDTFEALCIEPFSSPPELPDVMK
Sequence (P51531 1373-1493 isoform P51531-2): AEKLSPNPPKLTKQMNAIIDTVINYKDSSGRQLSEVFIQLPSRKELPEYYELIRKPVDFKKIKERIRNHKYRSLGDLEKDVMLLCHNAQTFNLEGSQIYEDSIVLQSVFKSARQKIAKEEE
Test: SPR ternary complex measurement, VCB immobilised, 10 µM SMARCA2^BD present
Assay type: binding
Design: P51531-2, residues 1373-1493 with additional N-terminal SM residues; His6 (TEV site) (N, cleaved yes); GST (TEV site) (N, cleaved yes); made in house; host or cells: SMARCA2^BD: Escherichia coli BL21(DE3)
Conditions: cooperativity, SMARCA2; ratio of KD values measured in the same run
propertyLabel: alpha

Input line: # return recorded alpha for input Cc1ncsc1-c1ccc([C@H](CCCCN2CCC(c3ccc4c(c3)n(C3CCCC3)c3nc(=O)c5c(Br)cccc5n43)CC2)NC(=O)[C@@H]2C[C@@H](O)CN2C(=O)[C@@H](NC(=O)C2(F)CC2)C(C)(C)C)cc1
Output line: 0.2

Input line: Provide only the value of recorded alpha for Cc1ncsc1-c1ccc([C@H](CC[C@@H](C)CCN2CCC(c3ccc4c(c3)n(C3CCCC3)c3nc(=O)c5c(Br)cccc5n43)CC2)NC(=O)[C@@H]2C[C@@H](O)CN2C(=O)[C@@H](NC(=O)C2(F)CC2)C(C)(C)C)cc1
Output line: 0.6

Input line: Specify reported alpha for the compound shown: Cc1ncsc1-c1ccc(CNC(=O)[C@@H]2C[C@@H](O)CN2C(=O)[C@@H](NC(=O)C2(F)CC2)C(C)(C)C)c(OCCOCCOCCOCCN2CCC(c3ccc4c(c3)n(C3CCCC3)c3nc(=O)c5c(Br)cccc5n43)CC2)c1
Output line: 0.5

Input line: Give recorded alpha. Cc1ncsc1-c1ccc([C@H](COCCN2CCC(c3ccc4c(c3)n(C3CCCC3)c3nc(=O)c5c(Br)cccc5n43)CC2)NC(=O)[C@@H]2C[C@@H](O)CN2C(=O)[C@@H](NC(=O)C2(N(C)C)CC2)C(C)(C)C)cc1
Output line: 0.8

====

Target: (Homo sapiens)
Construct: P51532, residues 1448–1569 with additional N-terminal SM residues; GST (TEV site) (N); His6 (TEV site) (N, cleaved yes); made in house; host or cells: SMARCA4^BD: Escherichia coli BL21(DE3)
Sequence (P51532 1448-1569): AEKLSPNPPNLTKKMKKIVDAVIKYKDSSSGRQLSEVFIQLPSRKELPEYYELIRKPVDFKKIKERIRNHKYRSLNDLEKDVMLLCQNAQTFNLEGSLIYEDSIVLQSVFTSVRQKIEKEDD
Assay: TR-FRET ternary complex affinity and cooperativity, SMARCA4
Type: binding
Conditions: TR-FRET competition for SMARCA4BD, without VCB; mean ± SD; read-out: TR-FRET SMARCA4BD EC50
propertyLabel: pEC50
Notebook: values listed as pEC50 are -log10 of the concentration (mol/L).

Input line: Please list pEC50 recorded for the molecule Cc1ncsc1-c1ccc([C@H](COC(C)(C)CN2CCC(c3ccc4c(c3)n(C3CCCC3)c3nc(=O)c5c(Br)cccc5n43)CC2)NC(=O)[C@@H]2C[C@@H](O)CN2C(=O)[C@@H](NC(=O)C2(F)CC2)C(C)(C)C)cc1 [compound 28]
Output line: 6.62

Input line: Give a short answer stating reported pEC50 for Cc1ncsc1-c1ccc(CNC(=O)[C@@H]2C[C@@H](O)CN2C(=O)[C@@H](NC(=O)C2(F)CC2)C(C)(C)C)c(OCCOCCOCCN2CCC(c3ccc4c(c3)n(C3CCCC3)c3nc(=O)c5c(Br)cccc5n43)CC2)c1 [compound 21] .
Output line: 6.28

Input line: Quick one: give measured pEC50 for Cc1ncsc1-c1ccc([C@H](COC(C)CN2CCC(c3ccc4c(c3)n(C3CCCC3)c3nc(=O)c5c(Br)cccc5n43)CC2)NC(=O)[C@@H]2C[C@@H](O)CN2C(=O)[C@@H](NC(=O)C2(F)CC2)C(C)(C)C)cc1 (stereo partly drawn) [compound 9]
Output line: 6.58

====

Give cooperativity α (SMARCA2BD) for every item shown.
Tested on: VCB: PROTAC: SMARCA2^BD ternary complex
Assay: TR-FRET ternary complex affinity and cooperativity, SMARCA2
Type: binding, human
Conditions: ratio TR-FRET EC50 / TR-FRET EC50 +VCB measured in the same run, SMARCA2BD
Response field accepts a number only; no unit should be typed.

Input line: Return cooperativity α (SMARCA2BD) (reported value) for this compound: Cc1ncsc1-c1ccc(C(CCC(C)CCN2CCC(c3ccc4c(c3)n(C3CCCC3)c3nc(=O)c5c(Br)cccc5n43)CC2)NC(=O)C2CC(O)CN2C(=O)C(NC(=O)C2(F)CC2)C(C)(C)C)cc1 (stereo not shown) [ACBI2]
Output line: 4.6

Input line: Item Cc1ncsc1-c1ccc(CNC(=O)[C@@H]2C[C@@H](O)CN2C(=O)[C@@H](NC(=O)C2(F)CC2)C(C)(C)C)c(OCCN2CCC(c3ccc4c(c3)n(C3CCCC3)c3nc(=O)c5c(Br)cccc5n43)CC2)c1 [compound 20] : provide cooperativity α (SMARCA2BD)
Output line: 0.6

Input line: Look up and state reported cooperativity α (SMARCA2BD) for Cc1ncsc1-c1ccc([C@H](CCC(C)(C)CCN2CCC(c3ccc4c(c3)n(C3CCCC3)c3nc(=O)c5c(Br)cccc5n43)CC2)NC(=O)[C@@H]2C[C@@H](O)CN2C(=O)[C@@H](NC(=O)C2(F)CC2)C(C)(C)C)cc1 [compound 30]
Output line: 5.9

Input line: Please report cooperativity α (SMARCA2BD) for the following compound: Cc1ncsc1-c1ccc([C@H](COC(C)CN2CCC(c3ccc4c(c3)n(C3CCCC3)c3nc(=O)c5c(Br)cccc5n43)CC2)NC(=O)[C@@H]2C[C@@H](O)CN2C(=O)[C@@H](NC(=O)C2(N(C)C)CC2)C(C)(C)C)cc1 (stereo partly shown) [compound 10]
Output line: 10.1

Input line: For Cc1ncsc1-c1ccc(CNC(=O)[C@@H]2C[C@@H](O)CN2C(=O)[C@@H](NC(=O)C2(F)CC2)C(C)(C)C)c(OCCOCCOCCN2CCC(c3ccc4c(c3)n(C3CCCC3)c3nc(=O)c5c(Br)cccc5n43)CC2)c1 [compound 21] , write its cooperativity α (SMARCA2BD).
Output line: 1.9

Input line: Give cooperativity α (SMARCA2BD) for Cc1ncsc1-c1ccc([C@H](COC(C)(C)CN2CCC(c3ccc4c(c3)n(C3CCCC3)c3nc(=O)c5c(Br)cccc5n43)CC2)NC(=O)[C@@H]2C[C@@H](O)CN2C(=O)[C@@H](NC(=O)C2(F)CC2)C(C)(C)C)cc1 [compound 28]
Output line: 3.8

Input line: Note cooperativity α (SMARCA2BD) for the compound shown: Cc1ncsc1-c1ccc([C@H](CCCCN2CCC(c3ccc4c(c3)n(C3CCCC3)c3nc(=O)c5c(Br)cccc5n43)CC2)NC(=O)[C@@H]2C[C@@H](O)CN2C(=O)[C@@H](NC(=O)C2(F)CC2)C(C)(C)C)cc1 [compound 25]
Output line: 2.2

====

Please respond with reported pEC50 for every item in the list.
Biological target: PBRM1BD5 (Homo sapiens, UniProt Q86U86)
Construct: GST (TEV site) (N); His6 (TEV site) (N, cleaved yes); made in house; host or cells: PBRM1^BD5: Escherichia coli BL21(DE3)
Sequence (Q86U86 645-766): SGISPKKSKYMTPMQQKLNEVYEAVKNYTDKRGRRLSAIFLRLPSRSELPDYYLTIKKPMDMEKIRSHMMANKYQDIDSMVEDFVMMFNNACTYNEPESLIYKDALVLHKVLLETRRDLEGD
Test: TR-FRET ternary complex affinity and cooperativity, PBRM1
Assay type: binding
Settings: TR-FRET competition for PBRM1BD5, without VCB; mean ± SD; read-out: TR-FRET PBRM1BD EC50
A value of pEC50 is the negative decimal logarithm of a concentration given in moles per litre.

Input line: Kindly indicate its recorded pEC50. Item: Cc1ncsc1-c1ccc([C@H](COCCCN2CCC(c3ccc4c(c3)n(C3CCCC3)c3nc(=O)c5c(Br)cccc5n43)CC2)NC(=O)[C@@H]2C[C@@H](O)CN2C(=O)[C@@H](NC(=O)C2(F)CC2)C(C)(C)C)cc1 [compound 27]
Output line: 7.48

Input line: Read off the recorded pEC50 for Cc1ncsc1-c1ccc([C@H](COCCN2CCC(c3ccc4c(c3)n(C3CCCC3)c3nc(=O)c5c(Br)cccc5n43)CC2)NC(=O)[C@@H]2C[C@@H](O)CN2C(=O)[C@@H](NC(=O)C2(N(C)C)CC2)C(C)(C)C)cc1 [compound 26]
Output line: 7.66

Input line: In one line, give reported pEC50 of the entry Cc1ncsc1-c1ccc([C@H](COC(C)CN2CCC(c3ccc4c(c3)n(C3CCCC3)c3nc(=O)c5c(Br)cccc5n43)CC2)NC(=O)[C@@H]2C[C@@H](O)CN2C(=O)[C@@H](NC(=O)C2(N(C)C)CC2)C(C)(C)C)cc1 (stereo partly shown) [compound 10] .
Output line: 7.51

Input line: Specify reported pEC50 for the compound shown: Cc1ncsc1-c1ccc(CNC(=O)[C@@H]2C[C@@H](O)CN2C(=O)[C@@H](NC(=O)C2(F)CC2)C(C)(C)C)c(OCCCCN2CCC(c3ccc4c(c3)n(C3CCCC3)c3nc(=O)c5c(Br)cccc5n43)CC2)c1 [compound 23]
Output line: 7.41

Input line: // fetch pEC50 given entry Cc1ncsc1-c1ccc(CNC(=O)[C@@H]2C[C@H](O)CN2C(=O)[C@@H](NC(=O)C2(F)CC2)C(C)(C)C)c(OCCN2CCC(c3ccc4c(c3)n(C3CCCC3)c3nc(=O)c5c(Br)cccc5n43)CC2)c1 [compound 19]
Output line: 7.42
